System: K4 kissing-loop RNA reporter;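 also: bound reporter read as fluorescence of individual clusters on recovered sequencing chips by microscopy, with normalized cluster intensities fitted with a binding model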
Assay: apparent KD of K4 kissing-loop reporter; higher = weaker reporter binding
Settings: Eterna round: R107; input ligand: none
reported-endpoint: apparent KD of K4 kissing-loop reporter (µM)
// units = µM; emit number, no label

(Q) Answer with apparent KD of K4 kissing-loop reporter of UUCAGUGAUGAUGAACACUGUUGUAUAAACUAGGAUAUGCUGAUAAGCAGAAGGAGUGAUGUUCCGUUCAUCAUCAGAAUUAAAU [KL-XFMN-A4] measured for K4 kissing-loop RNA reporter.
(A) 0.371

(Q) Answer with apparent KD of K4 kissing-loop reporter of UCGGCAGUGAACGAUACCAGCGUCACGUGGCUGGUGGUCACAUGAGUGAUGUUCAUGUAACGCCCUUGGCAGCGUGCGCGUACCG [KL-XTheo-B11] measured for K4 kissing-loop RNA reporter.
(A) 0.107

(Q) Answer with apparent KD of K4 kissing-loop reporter of UGUCAUUGGUCUGAUACCAGAAGAUAUUCUGGAGUGAUGUUCCAAGUACGACAAAGUCGCUUCCCUUGGCAGCAGACCGAUGACU [TheoBS 20 #SwitchBubble 13 #StaticStem] measured for K4 kissing-loop RNA reporter.
(A) 0.617

(Q) Answer with apparent KD of K4 kissing-loop reporter of AAAAUAAACCAGUGAUGUUGGUGUCCAGAUACCAGCGAUAAUAAUCGCCCUUGGCAGCUGCGGACGUACAAAAUAAGUACGUCCU [MatMod 11 - Jieux - Same State - Theophylline A] measured for K4 kissing-loop RNA reporter.
(A) 0.513

(Q) Answer with apparent KD of K4 kissing-loop reporter of GGACCGCCAGUGAUGUUGGAGAUAAACUCCAAGGAUAUGACGAAAGUCAGAAGGUGGUAAUAAGACGUCAAAGACGUCAGGUCCA [FmnA 21 #SwitchBubble #K4Early] measured for K4 kissing-loop RNA reporter.
(A) 0.361

(Q) Answer with apparent KD of K4 kissing-loop reporter of AGAGUUAUGCGAGGAUAUGCAGUUAGUACUCAAAGAGUACUAACGCAGAGUGAUGUUCUGUGAAACGCAGAAGGUGCAUAACUCA [Omei KL FMN B SS B v4] measured for K4 kissing-loop RNA reporter.
(A) 0.549

====

Exercise: for every item that follows, state its recorded apparent KD of MS2 coat protein.
Tested on: MS2 coat protein
Assay: apparent KD of MS2 coat protein; higher = weaker reporter binding
Conditions: Eterna round: R107; input ligand: arginine 13.2 mM
// units = nM; emit number, no label

(Q) Input "UCGUGUAUAUCGGAUACCAGUGAAAUCGAUACAUGAGGAUCACCCAUGUGAGAGGAUGUACACCCUUGGCAGCUGUAUAUAUCUA" , output reported apparent KD of MS2 coat protein.
(A) 19.5

(Q) Input CGGCCCUCACUUGAGGAUCACCCAAGUGAUACCAGCCUGGAAACAGGCCCUUGGCAGCACUAGGUCAUCAAAGAUGACCAAGCCG [TheoAX 28 #OpenEnded #AlternativeMS2] , output reported apparent KD of MS2 coat protein.
(A) 14.8

(Q) Input GAACAUAAGGAUAGUAUAAUAACUACAGAAGGAGCGUCAGGAAGGACAGGUAGGUCGCUGGAAGACAUGAGGAUCACCCAUGUUU [#03 Same State - Arginine A] , output reported apparent KD of MS2 coat protein.
(A) 20.6

Numbers sourced from the supplement of paper PMC9170038.
